Recorded values, source patent US20240182536A1.

# test target: T1, interleukin 18 binding protein (IL-18BP) (UniProt O95998 31-194); further: unit not given here
# T1 sequence (looked up): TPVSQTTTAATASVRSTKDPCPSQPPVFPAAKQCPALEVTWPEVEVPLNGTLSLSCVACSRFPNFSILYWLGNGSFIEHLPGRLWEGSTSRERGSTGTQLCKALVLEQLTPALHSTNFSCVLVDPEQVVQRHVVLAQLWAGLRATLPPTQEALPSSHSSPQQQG
# assay: cell-based or functional assay
Assignment: determine reported HEK-Blue activity, +100 nM BP, DF-1,000,000 for the given binders.
// no unit, no text: just the number

The binder listed as IL-18 variant K53H, S55Q (ligand) YFGKLESKLSVIRNLNDQVLFIDQGNRPLFEDMTDSDMRDNAPRTIFIISMYHDQQPRGMAVTISVKSEKISTLSSENKIISFKEMNPPDNIKDTKSDIIFFQRSVPGHDNKMQFESSSYEGYFLASEKERDLFKLILKKEDELGDRSIMFTVQNED has a reported HEK-Blue activity, +100 nM BP, DF-1,000,000 of 0.1

The binder listed as IL-18 variant K53D, S55Q, H109Y (ligand) YFGKLESKLSVIRNLNDQVLFIDQGNRPLFEDMTDSDMRDNAPRTIFIISMYDDQQPRGMAVTISVKSEKISTLSSENKIISFKEMNPPDNIKDTKSDIIFFQRSVPGYDNKMQFESSSYEGYFLASEKERDLFKLILKKEDELGDRSIMFTVQNED has a reported HEK-Blue activity, +100 nM BP, DF-1,000,000 of 0.1
